Hey, just so you know, these numbers are from PubChem BioAssay (NCI).

# Test system: SF-295 CNS
# protocol_summary: NCI tumour cell line growth inhibition, 48 h
# TGI listing for each entry below
measurement_kind: TGI

• Cc1cc(S(=O)(=O)Nc2nnc3c4ccccc4cnn23)c(S)cc1Cl = > 100 µM
• N#Cc1ccc(-c2c(-c3ncn[nH]3)sc(N3CCOCC3)c2C#N)c(F)c1 = 11.4 µM
• O=C(c1cccc2ccccc12)C1S(=O)(=O)OCCOS1(=O)=O = 0.0412 µM
• O=c1cc(-c2ccccc2)[nH]c2ccc(S)cc12 = > 100 µM
• O=C(CSCC(=O)N/N=C/c1ccccc1O)N/N=C\c1ccccc1O = > 100 µM
• C=C1C(=O)OC2C1C(OC(=O)/C(C)=C/C)CC(O)(CCl)C1C(O)C=C(C)C21O (stereo unspecified) = > 100 µM
• Cc1c(Cl)c(=O)oc2cc(OC/C=C3\CCC(=O)O3)ccc12 = > 100 µM
• CCOC(=O)C1C=C2O[C@@H]3OC4(CCCCC4)O[C@@H]3C2C2C(=O)CCC(=O)[C@@]12C(=O)OC (stereo partly specified) = > 100 µM
• Cn1c(=O)nc2n(-c3ccc(Cl)cc3)c(-c3ccccc3)c(-c3ccccc3)nc-2c1=O = > 100 µM
• O=C(O)[C@@H]1OCCOCCO[C@@H](C(=O)O)[C@H](C(=O)O)OCCOCCO[C@H]1C(=O)O = > 100 µM
• O=c1c2cc(Br)cc(Br)c2nc(CCCl)n1-c1ccc(O)c([N+](=O)[O-])c1 = 45 µM
• CC(=O)Nc1ccc2c3c(cc(O)c2c1)N(C(=O)CCCCC(=O)N1CC(CCl)c2c1cc(O)c1cc(NC(C)=O)ccc21)CC3CCl (stereo unspecified) = > 24.1 µM
• CC(C)(C)OC(=O)N1CC(CCl)c2ccc(O)cc21 (stereo unspecified) = 18.7 µM
• CNC(=O)c1cc(Oc2cccc3nc(NC(=O)Nc4cc(C(F)(F)F)cc(C(F)(F)F)c4)ccc23)ccn1 = 15.2 µM
• CC(=O)OC1OC(c2ccoc2)C[C@@]12C1CCC3O[C@]3(C)[C@]1(C)[C@H](OC(C)=O)[C@H](OC(C)=O)[C@H]2C (stereo partly specified) = > 37.5 µM
• Cc1coc2c1C(=O)C(=O)c1ccccc1-2 = 3.03 µM
• O=C1/C(=C/c2ccc3c(c2)OCCO3)CCC/C1=C\c1ccc2c(c1)OCCO2 = 57.3 µM
• COc1ccc2c(c1)c1c(n2CCN2CCOCC2)-c2cccc(OC)c2CC1 = > 100 µM
• Cc1ccc(C(=O)c2sc3nc4c(cc3c2N)CCCC4)c(C)c1 = 98.9 µM
• CC1=NN(c2nc(N)nc(CSc3cc(Cl)c(C)cc3S(N)(=O)=O)n2)C(C)(C)C1 = > 10 µM
• CCCCCCCCOCC(O)CO (stereo unspecified) = > 100 µM
